Biological target: UniProtKB Q13639
Sequence (Q13639 whole entry): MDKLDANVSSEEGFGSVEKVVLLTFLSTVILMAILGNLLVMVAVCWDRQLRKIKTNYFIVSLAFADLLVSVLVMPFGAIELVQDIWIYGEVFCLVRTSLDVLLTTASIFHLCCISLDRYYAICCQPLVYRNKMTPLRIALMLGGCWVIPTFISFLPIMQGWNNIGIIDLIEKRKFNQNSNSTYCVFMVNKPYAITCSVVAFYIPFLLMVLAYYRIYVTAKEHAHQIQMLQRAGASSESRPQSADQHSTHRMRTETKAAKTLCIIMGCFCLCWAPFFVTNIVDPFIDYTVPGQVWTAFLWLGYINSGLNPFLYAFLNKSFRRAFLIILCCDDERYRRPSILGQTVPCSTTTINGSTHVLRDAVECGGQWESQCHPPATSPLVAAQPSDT
Assay: Adenylyl cyclase assay (antagonist pKb, agonist/antagonist properties)
Format: biochemical
Details: Antagonist pKb value, membranes of HEK293 cells stably expressing human 5-HT4(b) receptor; hyphen-separated values taken as single determinations
ENDPOINT_LABEL: Kb

Consider the following illustrative entries.
> print(dat)
                                   compound     target.system  endpoint.label  observed.value
1  Cn1cc(C(=O)OCC2CCN(CCNS(C)(=O)=O)CC2)c2ccccc21 [GR113808, reference compound]  UniProtKB Q13639              Kb       0.0891 nM
2  O=C(OCC1CCN(Cc2ccc(-c3ccccc3-c3nn[nH]n3)cc2)CC1)c1c2n(c3ccccc13)CCCO2  UniProtKB Q13639              Kb      0.00447 nM
3  CC(C(=O)O)c1ccc(CN2CCC(COC(=O)c3c4n(c5ccccc35)CCCO4)CC2)cc1 (stereo not shown)  UniProtKB Q13639              Kb         1.62 nM

Could you now consider this next compound?
Input line: Give the observed Kb of O=C(OCC1CCN(C2C3CC4C(C3C(=O)O)C42)CC1)c1c2n(c3ccccc13)CCCO2 (stereo not shown) for UniProtKB Q13639.
Output line: 3.63 nM
